These entries and their values trace back to ChEMBL document CHEMBL1126031.

# TARGET OR SYSTEM: Renin (Homo sapiens)
# Sequence (P00797 whole entry): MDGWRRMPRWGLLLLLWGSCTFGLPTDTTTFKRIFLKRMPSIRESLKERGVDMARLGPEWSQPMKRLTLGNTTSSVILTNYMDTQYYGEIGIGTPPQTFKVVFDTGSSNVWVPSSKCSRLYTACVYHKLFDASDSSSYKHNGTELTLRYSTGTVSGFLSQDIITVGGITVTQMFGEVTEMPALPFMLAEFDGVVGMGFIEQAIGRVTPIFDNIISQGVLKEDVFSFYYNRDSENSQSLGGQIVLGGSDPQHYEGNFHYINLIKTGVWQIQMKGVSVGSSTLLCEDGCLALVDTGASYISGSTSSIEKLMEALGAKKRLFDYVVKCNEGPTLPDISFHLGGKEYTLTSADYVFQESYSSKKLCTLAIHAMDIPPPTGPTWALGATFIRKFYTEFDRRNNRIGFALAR
# PROTOCOL SUMMARY: In vitro potency against human plasma renin at pH 7.4
# Format: cell-free
pIC50: −log10 of the molar value.
EXPERIMENTAL ENDPOINT: pIC50

Example entries begin here.
>  <MOLECULE>
CC(C)C[C@H](O)[C@H](O)[C@H](CC1CCCCC1)NC(=O)[C@H](Cc1cscn1)NC(=O)[C@@H](CC(=O)N1CCOCC1)Cc1ccccc1

>  <pIC50>
8.08

$$$$
>  <MOLECULE>
CC(C)C[C@@H]1[C@@H](C(=O)N[C@@H](Cc2cscn2)C(=O)N[C@@H](CC2CCCCC2)[C@@H](O)[C@@H](O)CC(C)C)[C@@H]1C(=O)N1CCOCC1

>  <pIC50>
7.39

$$$$
>  <MOLECULE>
CC(C)C[C@H](O)[C@H](O)[C@H](CC1CCCCC1)NC(=O)[C@H](Cc1cscn1)NC(=O)[C@H]1[C@H](C(=O)N2CCOCC2)[C@@H]1c1ccccc1

>  <pIC50>
7.70

$$$$
>  <MOLECULE>
CC(C)C[C@H](O)[C@H](O)[C@H](CC1CCCCC1)NC(=O)[C@H](Cc1cscn1)NC(=O)C1[C@@H](c2ccccc2)[C@H]1c1ccccc1 (stereo partly specified)

>  <pIC50>
6.09

$$$$
>  <MOLECULE>
CCOC(=O)N[C@@H](Cc1ccc(I)cc1)C(=O)N[C@@H](CC(C)C)C(=O)N[C@@H](CC1CCCCC1)[C@@H](O)[C@@H](O)CC(C)C

>  <pIC50>
6.52

$$$$

1. CC[C@H]1[C@@H](C(=O)N[C@@H](Cc2cscn2)C(=O)N[C@@H](CC2CCCCC2)[C@@H](O)[C@@H](O)CC(C)C)[C@@H]1C(=O)N1CCOCC1
2. CC[C@@H]1[C@@H](C(=O)N[C@@H](Cc2cscn2)C(=O)N[C@@H](CC2CCCCC2)[C@@H](O)[C@@H](O)CC(C)C)[C@@H]1C(=O)N1CCOCC1
3. CC(C)C[C@H](O)[C@H](O)[C@H](CC1CCCCC1)NC(=O)[C@H](Cc1cscn1)NC(=O)[C@H]1[C@H](Cc2ccccc2)[C@@H]1C(=O)N1CCOCC1
4. CC(C)C[C@H](O)[C@H](O)[C@H](CC1CCCCC1)NC(=O)[C@H](Cc1cscn1)NC(=O)C(Cc1ccccc1)Cc1ccccc1
I would appreciate it if you could sort these 4 molecules by pIC50, starting from the smallest number. The reply should contain the labels ordered as requested. 1, 3, 2, 4
